tested on: Abutilon theophrasti (ABUTH); experiment: Herbicidal pre-emergence action, test D, single sowings (Table D4); assay type: in vivo; details: dosage 80 g/ha, scored after about 3 weeks
assay endpoint: Pre-emergence action against Abutilon theophrasti (ABUTH) (%)
The figure you give is taken to be in %; do not add the unit.

Data request: May I ask what Pre-emergence action against Abutilon theophrasti (ABUTH) has been recorded for Fc1cc(Cl)cnc1Oc1ccccc1-c1cc(C(F)F)no1 ?
Data returned: 100

Data request: What about this molecule? Fc1cccc(Oc2ccc(Cl)cn2)c1-c1cc(C(F)F)no1
Data returned: 100

Data request: What about this molecule? FC(F)c1cc(-c2ccccc2Oc2ccc(Cl)cn2)on1
Data returned: 80

Data request: What about this molecule? Fc1cc(Cl)cnc1Oc1cccc(F)c1-c1cc(C(F)F)no1
Data returned: 100

---

system: Alopecurus myosuroides (ALOMY); assay: Herbicidal pre-emergence action, test C (Table C9); assay type: in vivo; conditions: dosage 1280 g/ha; visual scoring after about 3 weeks; 100% = plants have died, 0% = like control plants
assay endpoint: Pre-emergence action against Alopecurus myosuroides (ALOMY) (%)
The figure you give is taken to be in %; do not add the unit.

Data request: May I ask what Pre-emergence action against Alopecurus myosuroides (ALOMY) has been recorded for Fc1cc(Cl)cnc1Oc1ccccc1-c1cncc(C(F)(F)F)c1 ?
Data returned: 100

Data request: What about this molecule? Fc1cc(Cl)cnc1Oc1ccccc1-c1cc(C(F)F)no1
Data returned: 100

Data request: What about this molecule? FC(F)c1cc(-c2c(Br)cccc2Oc2ccc(Cl)cn2)on1
Data returned: 100

Data request: What about this molecule? Fc1cc(Cl)cnc1Oc1ccccc1-c1ccc(Cl)cn1
Data returned: 100

Data request: What about this molecule? FC(F)c1cc(-c2ccccc2Oc2ccc(Cl)cn2)on1
Data returned: 90

Data request: What about this molecule? Cc1ccnc(-c2ccccc2Oc2ccc(Cl)cn2)c1
Data returned: 90

Data request: What about this molecule? Cc1cccc(Oc2ncc(Cl)cc2F)c1-c1cc(C(F)F)no1
Data returned: 100

Data request: What about this molecule? FC(F)c1cc(-c2c(Oc3ccc(Cl)cn3)cccc2C2CC2)on1
Data returned: 100

Data request: What about this molecule? N#Cc1cccc(Oc2ccc(Cl)cn2)c1-c1cc(C(F)F)no1
Data returned: 100

---

Tested on: Digitaria sanguinalis (DIGSA)
Assay: Herbicidal post-emergence action (Table B10)
Format: in vivo
Details: dosage 320 g/ha; visual rating about 3 weeks after treatment; 100% = plants have died, 0% = like control plants
Procedure: Seeds of mono- and dicotyledonous weed plants were placed in plastic pots in sandy loam soil (doubly sown with in each case one species of mono- or dicotyledonous weed plants per pot), covered with soil and cultivated in a greenhouse under controlled growth conditions. 2 to 3 weeks after sowing, the test plants were treated at the one-leaf stage. […]
assay endpoint: Post-emergence action against Digitaria sanguinalis (DIGSA) (%)
The figure you give is taken to be in %; do not add the unit.

Data request: May I ask what Post-emergence action against Digitaria sanguinalis (DIGSA) has been recorded for FC(F)c1cc(-c2ccccc2Oc2ccc(Cl)cn2)on1 ?
Data returned: 90

Data request: What about this compound? Cc1cccc(Oc2ncc(Cl)cc2F)c1-c1cc(C(F)F)no1
Data returned: 100

Data request: What about this compound? Fc1cc(Cl)cnc1Oc1ccccc1-c1cncc(C(F)(F)F)c1
Data returned: 90

Data request: What about this compound? N#Cc1cccc(Oc2ccc(Cl)cn2)c1-c1cc(C(F)F)no1
Data returned: 100

Data request: What about this compound? Fc1cccc(Oc2ccc(Br)cn2)c1-c1cc(C(F)F)no1
Data returned: 100

Data request: What about this compound? Fc1cc(Cl)cnc1Oc1ccccc1-c1cc(C(F)F)no1
Data returned: 100

Data request: What about this compound? Fc1ccc(Oc2ncc(Cl)cc2F)c(-c2cc(C(F)F)on2)c1
Data returned: 90

Data request: What about this compound? Cc1cccc(Oc2ncc(Cl)cc2F)c1-c1cc(C(F)F)on1
Data returned: 100

Data request: What about this compound? CCc1cccc(Oc2ccc(Cl)cn2)c1-c1cc(C(F)F)no1
Data returned: 100

Data request: What about this compound? FC(F)c1cc(-c2c(Br)cccc2Oc2ccc(Cl)cn2)on1
Data returned: 100

Data request: What about this compound? Cc1cccc(Oc2ccc(Cl)cn2)c1-c1cc(C(F)F)no1
Data returned: 100

---

tested on: Lolium rigidum (LOLRI); test: Herbicidal pre-emergence action, test C (Table C2); format: in vivo; conditions: dosage 1280 g/ha; visual scoring after about 3 weeks; 100% = plants have died, 0% = like control plants
For each entry below, report its Pre-emergence action against Lolium rigidum (LOLRI) value.
The figure you give is taken to be in %; do not add the unit.

Data request: Find the measured Pre-emergence action against Lolium rigidum (LOLRI): item Fc1cc(Cl)cnc1Oc1ccccc1-c1cncc(C(F)(F)F)c1 , target or system Lolium rigidum (LOLRI).
Data returned: 100

Data request: What about this molecule? Cc1cccc(Oc2ncc(Cl)cc2F)c1-c1cc(C(F)F)on1
Data returned: 90

Data request: What about this molecule? Fc1cc(Cl)cnc1Oc1ccccc1-c1cc(C(F)F)no1
Data returned: 90

---

system: Alopecurus myosuroides (ALOMY); experiment: Herbicidal post-emergence action (Table B9); assay type: in vivo; conditions: 1280 g/ha; rated visually after about 3 weeks; 100% = plants have died, 0% = like control plants
assay endpoint: Post-emergence action against Alopecurus myosuroides (ALOMY) (%)
The figure you give is taken to be in %; do not add the unit.

Data request: Find the measured Post-emergence action against Alopecurus myosuroides (ALOMY): item CCc1ccc(Oc2cccc(CC)c2-c2cc(C(F)F)no2)nc1 , target or system Alopecurus myosuroides (ALOMY).
Data returned: 100

Data request: What about this compound? FC(F)(F)c1ccc(-c2ccccc2Oc2ccc(Cl)cn2)nc1
Data returned: 90

Data request: What about this compound? Clc1ccc(Oc2ccccc2-c2ccc(Cl)cn2)nc1
Data returned: 90

Data request: What about this compound? FC(F)c1cc(-c2c(Br)cccc2Oc2ccc(Cl)cn2)on1
Data returned: 100

---

For each entry below, report its Pre-emergence action against Abutilon theophrasti (ABUTH) value.
test system: Abutilon theophrasti (ABUTH); experiment: Herbicidal pre-emergence action, test C (Table C5); assay type: in vivo; conditions: dosage 1280 g/ha; visual scoring after about 3 weeks; 100% = plants have died, 0% = like control plants
The figure you give is taken to be in %; do not add the unit.

Data request: May I ask what Pre-emergence action against Abutilon theophrasti (ABUTH) has been recorded for Cc1cccc(Oc2ccc(Cl)cn2)c1-c1cc(C(F)F)no1 ?
Data returned: 100

Data request: What about this molecule? Cc1ccc(-c2cc(C(F)F)no2)c(Oc2ncccc2F)c1
Data returned: 90

Data request: What about this molecule? Cc1ccc(-c2cc(C(F)F)no2)c(Oc2ccc(Cl)cn2)c1
Data returned: 90

Data request: What about this molecule? Cn1nc(-c2c(F)cccc2Oc2ccc(Cl)cn2)cc1C(F)F
Data returned: 90

Data request: What about this molecule? N#Cc1cccc(Oc2ccc(Cl)cn2)c1-c1cc(C(F)F)no1
Data returned: 100

Data request: What about this molecule? Fc1cccc(Oc2ccccn2)c1-c1cc(C(F)F)no1
Data returned: 100

Data request: What about this molecule? FC(F)c1cc(-c2ccccc2Oc2ccccn2)on1
Data returned: 100

Data request: What about this molecule? Fc1cccc(Oc2ccc(Br)cn2)c1-c1cc(C(F)F)no1
Data returned: 100

Data request: What about this molecule? Fc1cccc(Oc2ccc(Cl)cn2)c1-c1cc(C(F)F)on1
Data returned: 100

Data request: What about this molecule? Fc1cc(Cl)cnc1Oc1ccccc1-c1cncc(C(F)(F)F)c1
Data returned: 100

Data request: What about this molecule? Fc1cccnc1Oc1cccc(F)c1-c1cc(C(F)F)no1
Data returned: 100

Data request: What about this molecule? Fc1cccc(Oc2ccc(Cl)cn2)c1-c1cc(C(F)F)no1
Data returned: 100

Data request: What about this molecule? Cn1nc(-c2c(F)cccc2Oc2ncc(Cl)cc2F)cc1C(F)F
Data returned: 100

---

For each entry below, report its Pre-emergence action against Setaria viridis (SETVI) value.
test system: Setaria viridis (SETVI); experiment: Herbicidal pre-emergence action, test C (Table C4); format: in vivo; conditions: dosage 1280 g/ha; visual scoring after about 3 weeks; 100% = plants have died, 0% = like control plants
The figure you give is taken to be in %; do not add the unit.

Data request: May I ask what Pre-emergence action against Setaria viridis (SETVI) has been recorded for Cc1cc(C)c(-c2cc(C(F)F)no2)c(Oc2ccccn2)c1 ?
Data returned: 100

Data request: What about this compound? Cc1ccc(-c2ccccc2Oc2ccc(Cl)cn2)nc1
Data returned: 100

Data request: What about this compound? Fc1cccc(Oc2ccc(Cl)cn2)c1-c1cc(C(F)F)no1
Data returned: 100

Data request: What about this compound? Fc1cccc(Oc2ncc(C(F)(F)F)cc2Cl)c1-c1cc(C(F)F)no1
Data returned: 90

Data request: What about this compound? Fc1cccc(Oc2ccc(Cl)cn2)c1-c1cc(C(F)F)on1
Data returned: 100

Data request: What about this compound? COc1ccc(-c2cc(C(F)F)no2)c(Oc2ccc(Cl)cn2)c1
Data returned: 90

Data request: What about this compound? N#Cc1cccc(Oc2ccc(Cl)cn2)c1-c1cc(C(F)F)no1
Data returned: 100

Data request: What about this compound? Fc1cccnc1Oc1ccccc1-c1cc(C(F)F)no1
Data returned: 90

Data request: What about this compound? Fc1cc(Cl)cnc1Oc1cccc(F)c1-c1cc(C(F)F)no1
Data returned: 100

Data request: What about this compound? Fc1cccc(Oc2ccc(Br)cn2)c1-c1cc(C(F)F)no1
Data returned: 100

Data request: What about this compound? Cc1ccc(-c2cc(C(F)F)no2)c(Oc2ncc(Cl)cc2Cl)c1
Data returned: 90
